test system: MDA-MB-231; assay: NCI tumour cell line growth inhibition, 48 h
Active and inactive are the calls of the source. Cut-off read from the data, not from the text of the source: active = GI50 up to about 1.1 µM and inactive = higher.
Outcome codes: Yes for active, No for inactive

{"molecule": "COc1cc(C)c(/C=C/C(=O)N2C(=O)OC[C@@H]2c2ccccc2)c(C)c1", "discrete-label": "No"}
{"molecule": "Nc1nc(-c2cccc([N+](=O)[O-])c2)cc(-c2cc(-c3cccc([N+](=O)[O-])c3)nc(N)n2)n1", "discrete-label": "No"}
{"molecule": "CCN(CC)C1Oc2cc3c(cc2C(c2cc(OC)c(OC)c(OC)c2)C1C)OCO3 (centres undefined)", "discrete-label": "No"}
{"molecule": "CC1=C(/C=C/C(C)=C/C=C/C(C)=C/C(=O)O)C(C)(C)CCC1 [TRETINOIN]", "discrete-label": "No"}
{"molecule": "COc1ccc(/C=C2\\CN(C)Cc3c2nc(O)c(C#N)c3-c2ccc(OC)cc2)cc1", "discrete-label": "No"}
{"molecule": "CC(=O)c1ccc2c3c1[C@@H]1O[C@@H]1c1cccc(c1-3)[C@@H]1O[C@H]21", "discrete-label": "No"}
{"molecule": "Oc1c(/N=N\\c2ccccc2)c2cccc3ccc4cccc1c4c32", "discrete-label": "No"}
{"molecule": "Cc1ccc2nc(CN3CCCCC3)cc(=O)n2c1", "discrete-label": "No"}
{"molecule": "CCSc1c(C)c2c(n(Cc3ccc(OC)cc3)c1=O)Cc1ccccc1C2", "discrete-label": "No"}
{"molecule": "Cn1c(=O)c2c(nc3n(Cc4ccccc4)c(=O)c(NCCBr)cn23)n(C)c1=O", "discrete-label": "No"}
{"molecule": "CC1CC[C@@]2(OC1)OC1C[C@H]3[C@@H]4CC=C5CC(OC6OC(CO)C(OC7OC(CO)C(O)C(OC8OCC(O)C(O)C8O)C7OC7OC(CO)C(OC8OC(C)C(OC9OC(C)C(O)C(O)C9O)C(O)C8O)C(O)C7O)C(O)C6O)CCC5(C)[C@H]4CCC3(C)C1[C@@H]2C (some centres undefined)", "discrete-label": "No"}
{"molecule": "Cc1c2ccccc2c(CSC(=N)N)c2ccccc12", "discrete-label": "Yes"}
{"molecule": "CCCCc1ccc(Nc2cc(=O)n(C)c(=O)[nH]2)cc1", "discrete-label": "No"}
{"molecule": "Cc1ccc(S(=O)(=O)NCCCSCCSCCCN)cc1", "discrete-label": "No"}
{"molecule": "CC(=O)N1C(NN(C)C)CCN1c1ccccc1 (centres undefined)", "discrete-label": "No"}
{"molecule": "Cc1nc(-c2ccccc2)c(-c2ccccc2)s1", "discrete-label": "No"}
{"molecule": "CCc1n[nH]c(=O)n1O", "discrete-label": "No"}
{"molecule": "COC(=O)NC(C(F)(F)F)(C(F)(F)F)P1(=O)OCCCO1", "discrete-label": "No"}
{"molecule": "O=C(/C=C/c1ccsc1)c1ccc(Cl)s1", "discrete-label": "No"}
{"molecule": "Cc1ccc(S(=O)(=O)C2=C([Si](C)(C)C)C3CC2[C@@H]2C4C=CC(CC4)[C@H]32)cc1 (some centres undefined)", "discrete-label": "No"}
{"molecule": "N#CCN(CC#N)C1CC=CCC1N(CC#N)CC#N (centres undefined)", "discrete-label": "No"}
{"molecule": "Nc1nc(-c2ccccc2)nc2oc(-c3cccs3)nc12", "discrete-label": "No"}
{"molecule": "CCOc1nc2c(N3CCCC3)nc(N3CCNCC3)nc2nc1NCc1ccccc1", "discrete-label": "No"}
{"molecule": "C=C1C(=O)OC2/C=C(/CO)C3(O)CC(O)C(C)(CC(OC(=O)/C(C)=C/C)C12)O3 (centres undefined)", "discrete-label": "No"}
{"molecule": "CC(=O)OC1C2CCC1C1C2N=NN1c1ccc([N+](=O)[O-])cc1 (centres undefined)", "discrete-label": "No"}
{"molecule": "N#Cc1c(-c2ccc([N+](=O)[O-])cc2)c2c([nH]c1=O)-c1ccccc1CCC2", "discrete-label": "No"}
{"molecule": "COC(=O)C1=C(C)NC(C)=C(C(=O)OC)C1c1ccc(/[N+]([O-])=C/c2ccccc2)cc1", "discrete-label": "No"}
{"molecule": "COC(=O)C1CCCN1C(=O)C(Cc1cn(S(=O)(=O)c2ccc(C)cc2)cn1)NC(=O)OC(C)(C)C (centres undefined)", "discrete-label": "No"}
{"molecule": "Cc1ccc(S(=O)(=O)N2c3ccccc3[C@H]3CCC=C[C@H]32)cc1", "discrete-label": "No"}
{"molecule": "Cc1cc(C(C)(C)C)cc(CNC2CCCCC2)c1O", "discrete-label": "No"}
{"molecule": "Cc1ccc2c(=O)c(-c3nnsn3)c[nH]c2n1", "discrete-label": "No"}
{"molecule": "CCCCCCCCCCCCOc1ccc(/C=C/C2=[N+](CCCl)CCO2)cc1", "discrete-label": "No"}
{"molecule": "Cc1ccc(-c2n[nH]c(=O)n2NC(=O)c2ccccc2C(=O)O)cc1", "discrete-label": "No"}
{"molecule": "O=c1onc2n1-c1ccc(Cl)cc1C(=S)N1CSCC21 (centres undefined)", "discrete-label": "No"}
